SYSTEM: UniProt:P31648
TEST_SUMMARY: Inhibition of mouse GAT1 expressed in HEK293 cells assessed as reduction in [3H]GABA uptake preincubated cells with photoirradiated compound for 25 mins followed by [3H]GABA addition measured after 4 mins by liquid scintillation counting method
Assay type: cell-based
QUANTITY_KIND: IC50 (nM)

A selection of reference data follows.
COMPOUND: O=C(O)C1CCCN(CCCC#Cc2cccc(N=Nc3ccccc3)c2)C1 (mixture of isomers)
IC50 [nM]: 4070
//
COMPOUND: O=C(O)C1CCCN(CCCC#Cc2ccc(N=Nc3ccccc3)cc2)C1 (mixture of isomers)
IC50 [nM]: 25700
//
COMPOUND: O=C(O)C1CCCN(CCC=Cc2cccc(N=Nc3ccccc3)c2)C1 (mixture of isomers)
IC50 [nM]: 4790
//
COMPOUND: O=C(O)C1CCCN(CCC#Cc2cccc(N=Nc3cccc4ccccc34)c2)C1 (mixture of isomers)
IC50 [nM]: 1950
//
COMPOUND: O=C(O)[C@@H]1CCCN(CCC#Cc2ccc(N=Nc3ccccc3)cc2)C1 (mixture of isomers)
IC50 [nM]: 1450
//
COMPOUND: O=C(O)C1CCCN(CCC#Cc2ccc(N=Nc3cccc4ccccc34)cc2)C1 (mixture of isomers)
IC50 [nM]: 229

(a) O=C(O)[C@@H]1CCCN(CCC#Cc2ccc(N=Nc3cccc4ccccc34)cc2)C1 (mixture of isomers)
(b) O=C(O)C1CCCN(CCC#Cc2cccc(N=Nc3ccccc3)c2)C1 (mixture of isomers)
Request: Lab log: flag the item ( a or b ) with the smaller IC50 figure. // output: label of the selected item
Response: a

---

SYSTEM: Sodium- and chloride-dependent GABA transporter 1 (Mus musculus)
TEST_SUMMARY: Inhibition of mouse GAT1 expressed in HEK293 cells assessed as reduction in [3H]GABA uptake preincubated cells with photoirradiated compound for 25 mins followed by [3H]GABA addition measured after 4 mins by liquid scintillation counting method
Format: cell-based
pIC50: −log10 of the molar value.
QUANTITY_KIND: pIC50

A selection of reference data follows.
COMPOUND: O=C(O)C1CCCN(CCC=Cc2ccc(N=Nc3cccc4ccccc34)cc2)C1 (mixture of isomers)
pIC50: 5.13

COMPOUND: O=C(O)C1CCCN(CCCC#Cc2ccc(N=Nc3cccc4ccccc34)cc2)C1 (mixture of isomers)
pIC50: 5.31

(I) O=C(O)C1CCCN(CCC=Cc2cccc(N=Nc3cccc4ccccc34)c2)C1 (mixture of isomers)
(II) O=C(O)[C@@H]1CCCN(CCC#Cc2cccc(N=Nc3cccc4ccccc34)c2)C1 (mixture of isomers)
Request: Lab log: flag the item ( I or II ) with the smaller pIC50 figure. // output: label of the selected item
Response: I

---

TEST_SUMMARY: Half life of thermal relaxation of compound in pH 7.4 DMSO-d6/phosphate-buffer using photoirradiated compound at 20 uM incubated in dark by UV/vis-spectroscopy
Format: physicochemical
DETAILS: pH 7.4, 20 µM
QUANTITY_KIND: t1/2 (h)

A selection of reference data follows.
MOLECULE: O=C(O)C1CCCN(CCCC=Cc2cccc(N=Nc3cccc4ccccc34)c2)C1 (mixture of isomers)
t1/2, h: 11
//
MOLECULE: O=C(O)C1CCCN(CCCC#Cc2cccc(N=Nc3ccccc3)c2)C1 (mixture of isomers)
t1/2, h: 360
//
MOLECULE: O=C(O)C1CCCN(CCC=Cc2cccc(N=Nc3cccc4ccccc34)c2)C1 (mixture of isomers)
t1/2, h: 22

(I) O=C(O)C1CCCN(CCC#Cc2cccc(N=Nc3cccc4ccccc34)c2)C1 (mixture of isomers)
(II) O=C(O)C1CCCN(CCCC#Cc2cccc(N=Nc3cccc4ccccc34)c2)C1 (mixture of isomers)
(III) O=C(O)C1CCCN(CCCC=Cc2cccc(N=Nc3ccccc3)c2)C1 (mixture of isomers)
Request: List from greatest to least t1/2. Please, when replying, give the labels in the order that was requested.
Response: III, II, I
(III: 288 h, II: 43.2 h, I: 18 h)

---

SYSTEM: Sodium- and chloride-dependent GABA transporter 1 (Mus musculus, UniProt P31648)
TEST_SUMMARY: Inhibition of mouse GAT1 expressed in HEK293 cells assessed as reduction in [3H]GABA uptake
Assay type: cell-based
pIC50: −log10 of the molar value.
QUANTITY_KIND: pIC50

(P) O=C(O)C1CCCN(CC/C=C/c2ccccc2-c2ccccc2)C1 (configuration not stated)
(Q) O=C(O)C1CCCN(CCC#Cc2ccccc2-c2ccccc2)C1 (configuration not stated)
Request: // max by pIC50 over [ P , Q ] // output: label of the selected item
Response: Q
